molecular target: CYP 2D6 (Homo sapiens (Human), UniProt P10635); experiment: biochemical; type: in vitro ADME; settings: Human Liver Microsomes
Sequence (P10635 whole entry): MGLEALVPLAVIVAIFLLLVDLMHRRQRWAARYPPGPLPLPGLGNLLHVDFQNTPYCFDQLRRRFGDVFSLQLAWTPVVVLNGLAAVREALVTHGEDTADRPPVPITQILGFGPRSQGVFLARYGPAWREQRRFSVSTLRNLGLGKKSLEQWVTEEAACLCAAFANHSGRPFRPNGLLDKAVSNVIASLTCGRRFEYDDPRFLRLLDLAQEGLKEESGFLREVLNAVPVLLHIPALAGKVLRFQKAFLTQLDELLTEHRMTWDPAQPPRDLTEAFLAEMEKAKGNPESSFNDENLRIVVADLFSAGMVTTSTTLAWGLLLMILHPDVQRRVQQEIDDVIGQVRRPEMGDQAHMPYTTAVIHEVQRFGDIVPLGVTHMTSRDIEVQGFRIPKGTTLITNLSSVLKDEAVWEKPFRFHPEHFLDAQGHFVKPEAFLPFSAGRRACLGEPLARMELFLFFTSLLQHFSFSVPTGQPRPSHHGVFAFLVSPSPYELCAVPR
reported.endpoint: IC50 (µM)
I only need the number, in µM, no unit after it.

Could you tell me which IC50 is on file for C#Cc1cc(Nc2ncnc3cc(OCCOC)ccc23)cc(OCCOCC)c1 ? 27.6

* * *

Examples of molecules with documented pKd follow.
target: purified recombinant ILK (Homo sapiens (Human)); assay: ILK binding affinity, EnSpire fluorescence intensity; conditions: EnSpire fluorescence intensity; read-out: ILK - Binding affinity
Sequence (Q13418 whole entry): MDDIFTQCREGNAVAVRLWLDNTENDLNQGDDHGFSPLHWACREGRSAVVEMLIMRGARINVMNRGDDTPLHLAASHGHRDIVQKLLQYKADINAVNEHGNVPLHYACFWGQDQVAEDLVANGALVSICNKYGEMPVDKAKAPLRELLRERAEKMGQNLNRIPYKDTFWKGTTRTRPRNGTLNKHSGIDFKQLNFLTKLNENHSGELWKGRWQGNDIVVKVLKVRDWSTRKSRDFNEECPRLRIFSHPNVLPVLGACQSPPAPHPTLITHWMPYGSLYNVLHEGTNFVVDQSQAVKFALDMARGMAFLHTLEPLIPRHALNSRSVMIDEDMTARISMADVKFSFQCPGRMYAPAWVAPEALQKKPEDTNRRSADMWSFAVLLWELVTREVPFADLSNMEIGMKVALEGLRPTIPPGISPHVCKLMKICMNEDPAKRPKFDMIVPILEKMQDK
Kindly note that pKd refers to -log10 of the concentration in mol/L and answer with the value alone.

[
  {
    "molecule": "C#Cc1cc(Nc2ncnc3cc(OCCOC)ccc23)cc(OCCOCC)c1",
    "readout.number": 5.56
  },
  {
    "molecule": "C#Cc1cc(C#C)cc(Nc2ncnc3cc(OC)c(OC)cc23)c1",
    "readout.number": 5.81
  }
]

Now consider a different molecule.
Could you tell me which pKd is on file for C#Cc1cc(Nc2ncnc3cc(OCCOC)c(OCCOC)cc23)ccc1C [Erlotinib-4-methylphenyl analog (E4ME)] ? 5.81

* * *

Examples of molecules with documented Kd follow.
biological target: ILK (Homo sapiens (Human), UniProt Q13418); assay: ILK binding affinity, Nanotemper; conditions: Nanotemper; read-out: ILK - Binding affinity
Sequence (Q13418 whole entry): as above
I only need the number, in nM, no unit after it.

Example results:
[
  {
    "compound": "C#Cc1cc(Nc2ncnc3cc(OCCOC)c(OCCOC)cc23)cc(OCCOCC)c1",
    "Kd, nM": 922
  },
  {
    "compound": "C#Cc1cc(Nc2ncnc3cc(OCCOC)c(OCCOC)cc23)cc(OCCOC)c1",
    "Kd, nM": 2440
  }
]

Now consider a different molecule.
What is its Kd for ILK (Homo sapiens (Human), UniProt Q13418)? Entry: C#Cc1cc(Nc2ncnc3cc(OCCOC)ccc23)cc(OCCOC)c1 6850

* * *

experiment: Protein binding in mouse plasma; type: in vitro ADME; conditions: read-out: % Bound
reported.endpoint: fraction unbound
Form: value (number only, do not type unit).

Could you tell me which fraction unbound is on file for C#Cc1cc(Nc2ncnc3cc(OCCOC)ccc23)cc(OCCOCC)c1 ? 0.01

* * *

assay: Permeability in Caco2 cell line; assay type: in vitro ADME; details: human, Caco-2, Caco2, AP-BL; read-out: Recovery (%)AP-BL
Examples of compounds with documented recovery follow.
I only need the number, in %, no unit after it.

[
  {
    "compound": "COc1cc2nc(N3CCN(C(=O)c4ccco4)CC3)nc(N)c2cc1OC",
    "recovery, %": 85.1
  },
  {
    "compound": "CC(C)NCC(O)COc1cccc2ccccc12 (stereo not shown)",
    "recovery, %": 60.8
  },
  {
    "compound": "C[C@H]1O[C@@H](O[C@H]2[C@@H](O)C[C@H](O[C@H]3[C@@H](O)C[C@H](O[C@H]4CC[C@@]5(C)[C@H](CC[C@@H]6[C@@H]5C[C@@H](O)[C@]5(C)[C@@H](C7=CC(=O)OC7)CC[C@]65O)C4)O[C@@H]3C)O[C@@H]2C)C[C@H](O)[C@@H]1O",
    "recovery, %": 87.9
  }
]

Could you tell me which recovery is on file for C#Cc1cc(Nc2ncnc3cc(OCCOC)ccc23)cc(OCCOCC)c1 ? 51
